Where do these numbers come from? They come from ChEMBL document CHEMBL1153286.

Experiment: Effect on insulin release in rat pancreatic cells at 100 umol/L after 6 hrs by radioimmunoassay
Format: functional
measured_quantity: Activity (uIU/ml)
The figure you give is taken to be in uIU/ml; do not add the unit.

compound	Activity / uIU/ml
CC(=O)Nc1ccc(S(=O)(=O)NCCc2ccc(S(=O)(=O)NC(=O)NC3CCC(C)CC3)cc2)cc1C (centres undefined)	37.32

Sample `Cc1ccc(NC(=S)NS(=O)(=O)c2ccc(CCNS(=O)(=O)c3ccc(C)cc3)cc2)cc1` ; Activity observed: 20.87

For record `Cc1ccc(S(=O)(=O)NCCc2ccc(S(=O)(=O)NC(=S)Nc3ccc(Cl)cc3)cc2)cc1` the listed Activity is 22.25

Reported Activity ( CC(=O)Nc1ccc(S(=O)(=O)NCCc2ccc(S(=O)(=O)NC(=O)NC3CCC(C)CC3)cc2)cc1 (centres undefined) ) = 28.52

Reported Activity ( `Cc1ccc(S(=O)(=O)NCCc2ccc(S(=O)(=O)NC(=O)NC3CCCCC3)cc2)cc1` ) = 25.93

# Activity of `O=S(=O)(NCCc1ccc(S(=O)(=O)NC(=S)Nc2ccc(Cl)cc2)cc1)c1ccc(Cl)cc1` = 26.07

Kindly note the recorded Activity for `COc1ccc(NC(=S)NS(=O)(=O)c2ccc(CCNS(=O)(=O)c3ccc(C)cc3)cc2)cc1` , which is 23.69

Input `O=S(=O)(NCCc1ccc(S(=O)(=O)NC(=S)Nc2ccc(Cl)cc2)cc1)c1ccccc1` . Output Activity: 26.06

Activity measured on CC1CCC(NC(=O)NS(=O)(=O)c2ccc(CCNS(=O)(=O)c3ccc(Cl)cc3)cc2)CC1 (centres undefined) = 72.23
